Parameter remaining at 3 h: see the listing below.
experiment: Remaining amount by RP-HPLC after pepsin treatment; type: in vitro ADME; conditions: isolated enzyme pepsin; pepsin treated for 3 h; read-out RP-HPLC; Table S2
Where a SMILES comes first, the peptide text is derived from it.
property.name: remaining at 3 h

# compound, assay.value
measured = [
    ("CSCC[C@H](NC=O)C(=O)N[C@@H](CCC(N)=O)C(=O)N[C@H](C(=O)NCC(=O)N[C@@H](CC(N)=O)C(=O)N[C@@H](C)C(=O)N[C@@H](CC(=O)O)C(=O)NP(=O)(OCCCN)OC[C@H]1O[C@@H](n2cnc3c(N)ncnc32)[C@H](O)[C@@H]1O)[C@@H](C)O (stereo partly drawn) [R2Q] (HELM PEPTIDE1{[O=C[*:2]].M.Q.T.G.N.A.[NCCCOP(=O)(NC(=O)[C@H](CC(=O)O)N[*:1])OC[C@H]1O[C@@H](n2cnc3c(N)ncnc32)[C@H](O)[C@@H]1O]}$$$$V2.0)", "87.6%"),
    ("CSCC[C@H](NC=O)C(=O)N[C@H](C(=O)N[C@H](C(=O)NCC(=O)N[C@@H](CC(N)=O)C(=O)N[C@@H](C)C(=O)N[C@@H](CC(=O)O)C(=O)NP(=O)(OCCCN)OC[C@H]1O[C@@H](n2cnc3c(N)ncnc32)[C@H](O)[C@@H]1O)[C@@H](C)O)C(C)C (stereo partly drawn) [R2V] (HELM PEPTIDE1{[O=C[*:2]].M.V.T.G.N.A.[NCCCOP(=O)(NC(=O)[C@H](CC(=O)O)N[*:1])OC[C@H]1O[C@@H](n2cnc3c(N)ncnc32)[C@H](O)[C@@H]1O]}$$$$V2.0)", "79%"),
    ("CSCC[C@H](NC=O)C(=O)N[C@@H](CO)C(=O)N[C@H](C(=O)NCC(=O)N[C@@H](CC(N)=O)C(=O)N[C@@H](C)C(=O)N[C@@H](CC(=O)O)C(=O)NP(=O)(OCCCN)OC[C@H]1O[C@@H](n2cnc3c(N)ncnc32)[C@H](O)[C@@H]1O)[C@@H](C)O (stereo partly drawn) [R2S] (HELM PEPTIDE1{[O=C[*:2]].M.S.T.G.N.A.[NCCCOP(=O)(NC(=O)[C@H](CC(=O)O)N[*:1])OC[C@H]1O[C@@H](n2cnc3c(N)ncnc32)[C@H](O)[C@@H]1O]}$$$$V2.0)", "84.3%"),
    ("CSCC[C@H](NC=O)C(=O)N[C@@H](C)C(=O)N[C@H](C(=O)NCC(=O)N[C@@H](CC(N)=O)C(=O)N[C@@H](C)C(=O)N[C@@H](CC(=O)O)C(=O)NP(=O)(OCCCN)OC[C@H]1O[C@@H](n2cnc3c(N)ncnc32)[C@H](O)[C@@H]1O)[C@@H](C)O (stereo partly drawn) [R2A] (HELM PEPTIDE1{[O=C[*:2]].M.A.T.G.N.A.[NCCCOP(=O)(NC(=O)[C@H](CC(=O)O)N[*:1])OC[C@H]1O[C@@H](n2cnc3c(N)ncnc32)[C@H](O)[C@@H]1O]}$$$$V2.0)", "92.2%"),
    ("CSCC[C@H](NC=O)C(=O)N[C@@H](CC(=O)O)C(=O)N[C@H](C(=O)NCC(=O)N[C@@H](CC(N)=O)C(=O)N[C@@H](C)C(=O)N[C@@H](CC(=O)O)C(=O)NP(=O)(OCCCN)OC[C@H]1O[C@@H](n2cnc3c(N)ncnc32)[C@H](O)[C@@H]1O)[C@@H](C)O (stereo partly drawn) [R2D] (HELM PEPTIDE1{[O=C[*:2]].M.D.T.G.N.A.[NCCCOP(=O)(NC(=O)[C@H](CC(=O)O)N[*:1])OC[C@H]1O[C@@H](n2cnc3c(N)ncnc32)[C@H](O)[C@@H]1O]}$$$$V2.0)", "83.9%"),
    ("CSCC[C@H](NC=O)C(=O)N[C@@H](CCCCN)C(=O)N[C@H](C(=O)NCC(=O)N[C@@H](CC(N)=O)C(=O)N[C@@H](C)C(=O)N[C@@H](CC(=O)O)C(=O)NP(=O)(OCCCN)OC[C@H]1O[C@@H](n2cnc3c(N)ncnc32)[C@H](O)[C@@H]1O)[C@@H](C)O (stereo partly drawn) [R2K] (HELM PEPTIDE1{[O=C[*:2]].M.K.T.G.N.A.[NCCCOP(=O)(NC(=O)[C@H](CC(=O)O)N[*:1])OC[C@H]1O[C@@H](n2cnc3c(N)ncnc32)[C@H](O)[C@@H]1O]}$$$$V2.0)", "87.7%"),
    ("CSCC[C@H](NC=O)C(=O)N[C@@H](CCCNC(=N)N)C(=O)N[C@H](C(=O)NCC(=O)N[C@@H](CC(N)=O)C(=O)N[C@@H](C)C(=O)N[C@@H](CC(=O)O)C(=O)NP(=O)(OCCCN)OC[C@H]1O[C@@H](n2cnc3c(N)ncnc32)[C@H](O)[C@@H]1O)[C@@H](C)O (stereo partly drawn) [McC, Microcin C7] (HELM PEPTIDE1{[O=C[*:2]].M.R.T.G.N.A.[NCCCOP(=O)(NC(=O)[C@H](CC(=O)O)N[*:1])OC[C@H]1O[C@@H](n2cnc3c(N)ncnc32)[C@H](O)[C@@H]1O]}$$$$V2.0)", "89.3%"),
    ("CSCC[C@H](NC=O)C(=O)N[C@@H](Cc1ccc(O)cc1)C(=O)N[C@H](C(=O)NCC(=O)N[C@@H](CC(N)=O)C(=O)N[C@@H](C)C(=O)N[C@@H](CC(=O)O)C(=O)NP(=O)(OCCCN)OC[C@H]1O[C@@H](n2cnc3c(N)ncnc32)[C@H](O)[C@@H]1O)[C@@H](C)O (stereo partly drawn) [R2Y] (HELM PEPTIDE1{[O=C[*:2]].M.Y.T.G.N.A.[NCCCOP(=O)(NC(=O)[C@H](CC(=O)O)N[*:1])OC[C@H]1O[C@@H](n2cnc3c(N)ncnc32)[C@H](O)[C@@H]1O]}$$$$V2.0)", "85.2%"),
    ("CSCC[C@H](NC=O)C(=O)N[C@H](C(=O)N[C@H](C(=O)NCC(=O)N[C@@H](CC(N)=O)C(=O)N[C@@H](C)C(=O)N[C@@H](CC(=O)O)C(=O)NP(=O)(OCCCN)OC[C@H]1O[C@@H](n2cnc3c(N)ncnc32)[C@H](O)[C@@H]1O)[C@@H](C)O)[C@@H](C)O (stereo partly drawn) [R2T] (HELM PEPTIDE1{[O=C[*:2]].M.T.T.G.N.A.[NCCCOP(=O)(NC(=O)[C@H](CC(=O)O)N[*:1])OC[C@H]1O[C@@H](n2cnc3c(N)ncnc32)[C@H](O)[C@@H]1O]}$$$$V2.0)", "86.8%"),
]
